Sourced from patent US11548888B2

- TARGET_DESC: KRas G12C (Homo sapiens, UniProt P01116, G12C)
- Construct: NCI-H358 cells (ATCC CRL-5807) express KRas G12C
- Sequence (P01116 1-188 isoform P01116-2 G12C): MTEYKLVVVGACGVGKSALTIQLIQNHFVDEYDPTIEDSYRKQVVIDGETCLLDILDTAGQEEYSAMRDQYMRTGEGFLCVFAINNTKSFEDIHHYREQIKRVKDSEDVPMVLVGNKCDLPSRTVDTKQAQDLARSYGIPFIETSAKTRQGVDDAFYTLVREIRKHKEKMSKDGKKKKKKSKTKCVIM
- METHOD_NOTES: Inhibition of KRas G12C-dependent cell growth: Phospho-ERK in NCI-H358 cells
- MEASUREMENT_CONDITIONS: NCI-H358 cells expressing KRas G12C; Phospho-ERK (Thr202/Tyr204) normalized to GAPDH; 3 hours compound; 4 parameter fit
READOUT: pIC50
# reply with the number alone; pIC50 is -log10 of concentration in mol/L

// known answers, use as guide
1. C=CC(=O)N1CC[C@@H]2[C@H]1CN2c1nc(N(C)CC)nc2c(F)c(-c3cccc4ccc(F)c(Cl)c34)ncc12 [Example 274] : 5.00
2. C=CC(=O)N1CC[C@@H]2[C@H]1CN2c1nc(OC[C@@H]2CCCN2C)nc2c(F)c(-c3cccc4ccc(F)c(Cl)c34)ncc12 [Example 239] : 8.30
3. C=CC(=O)N1CCN(c2ncnc3cc(-c4cc(O)cc5ccccc45)ncc23)CC1C#N (stereo not drawn) [Example 2] : 6.49
4. COC/C=C/C(=O)N1CCN(c2nc(OC[C@@H]3C[C@@H](F)CN3C)nc3c(F)c(-c4cccc5cccc(C)c45)ncc23)C[C@@H]1CC#N [Example 49] : 7.21
5. C=CC(=O)N1C[C@@H]2[C@H]1CCN2c1nc(OC[C@@H]2CCCN2C)nc2c(F)c(-c3cccc4ccc(F)c(Cl)c34)ncc12 [Example 228] : 6.64

Consider now this further molecule.
Value wanted: pIC50 (KRas G12C (Homo sapiens, UniProt P01116, G12C)) of entry C=C(F)C(=O)N1CCN(c2nc(OCC34CCCN3C(CF)CC4)nc3c(F)c(-c4cccc5ccc(F)c(Cl)c45)ncc23)C[C@@H]1CC#N (stereo partly drawn) [Example 188]
7.54

* * *

- TARGET_DESC: KRas G12C (Homo sapiens, UniProt P01116, G12C)
- Construct: NCI-H358 cells (ATCC CRL-5807) express KRas G12C
- METHOD_NOTES: Inhibition of KRas G12C-dependent cell growth: Phospho-ERK in NCI-H358 cells
- MEASUREMENT_CONDITIONS: NCI-H358 cells expressing KRas G12C; Phospho-ERK (Thr202/Tyr204) normalized to GAPDH; 3 hours compound; 4 parameter fit
READOUT: IC50
# do not omit the unit; it follows the number

// known answers, use as guide
1. C=C(F)C(=O)N1CCN(c2nc(OCCN(C)C)nc3c(F)c(-c4cccc5cccc(Cl)c45)ncc23)C[C@@H]1CC#N : 86 nM
2. C=CC(=O)N1CC[C@@H]2[C@H]1CN2c1nc(OC[C@@H]2CCCN2C)nc2c(F)c(-c3cc(O)cc4cccc(Cl)c34)ncc12 : 40 nM
3. C=CC(=O)N1CCCC12CN(c1ncnc3c(F)c(-c4cccc5ccc(F)c(Cl)c45)ncc13)C2 : 10000 nM
4. Cc1cccc2cccc(-c3ncc4c(N5CCN(C(=O)/C=C/CF)[C@@H](CC#N)C5)nc(OCCCN5C[C@@H]6C[C@H]5CO6)nc4c3F)c12 : 131 nM
5. COC/C=C/C(=O)N1CCN(c2ncnc3c(F)c(-c4cccc5ccc(F)c(Cl)c45)ncc23)C[C@@H]1CC#N : 725 nM

Looking for the measured IC50 of C=C(F)C(=O)N1CCN(c2ncnc3c(F)c(-c4cc(O)cc5ccccc45)ncc23)C[C@@H]1CC#N , can you help?
590 nM

Likewise for C=CC(=O)N1CCN(c2ncnc3cc(-c4cc(O)cc5ccccc45)ncc23)CC1 ?
1920 nM
